Test system: Aspergillus fumigatus
Assay: Antimicrobial activity against Aspergillus fumigatus after 72 to 96 hrs
Reported MIC values follow for various molecules
A number alone suffices; assume mg/L.

Before answering, review these 5 worked examples.
molecule	observed property	units symbol	numeric value
Cc1cccc2c1OCN(c1ccccc1)C2	MIC	mg/L	50
Clc1ccc2c(c1)CN(c1ccccc1)CO2	MIC	mg/L	25
Cc1ccc(N2COc3ccc(C)cc3C2)cc1	MIC	mg/L	50
OC(Cn1cncn1)(Cn1cncn1)c1ccc(F)cc1F	MIC	mg/L	2
Cc1ccc2c(c1)CN(CCN1COc3ccc(C)cc3C1)CO2	MIC	mg/L	50

Challenge: Form: Entry = Cc1ccc2c(c1)CN(c1ccccc1Cl)CO2 | System = Aspergillus fumigatus | MIC = ____
Response given: 50

Challenge: Find the measured MIC: item Clc1ccc2c(c1)CN(CCN1COc3ccc(Cl)cc3C1)CO2 , target or system Aspergillus fumigatus.
Response given: 50

Challenge: Identify the measured MIC of c1ccc2c(c1)CN(CCN1COc3ccccc3C1)CO2 for Aspergillus fumigatus.
Response given: 50

Challenge: Request body: readout MIC, system Aspergillus fumigatus, query Clc1ccccc1N1COc2c(Cl)ccc(Cl)c2C1 . Return the value.
Response given: 50

Challenge: Return MIC measured with Aspergillus fumigatus given this molecule: Clc1cc(Cl)c2c(c1)CN(CCN1COc3c(Cl)cc(Cl)cc3C1)CO2
Response given: 50

* * *

MIC values, listed per item
System: Aspergillus fumigatus
Assay: Antimicrobial activity against Aspergillus fumigatus after 72 to 96 hrs
Enter your answer as a number in µg/mL; do not include the unit.

c1ccc(N2COc3ccccc3C2)cc1 50

Challenge: Would you mind telling me what MIC value was observed for Cc1ccc2c(c1)CN(c1ccccc1)CO2 ?
Response given: 50

* * *

System: Trichophyton mentagrophytes
Assay: Antimicrobial activity against Trichophyton mentagrophytes after 72 to 96 hrs
observed property: log10 of MIC (log10 of the value in µg/mL)
Remember, log10 of MIC, in µg/mL.

Previously resolved entries follow.
compound	log10 of MIC
Clc1ccc(Cl)c(N2COc3ccc4ccccc4c3C2)c1	1.70
CCCCN1COc2ccc(Cl)cc2C1	1.70
Clc1ccc2c(c1)CN(CCN1COc3ccc(Cl)cc3C1)CO2	0.49

Challenge: Which log10 of MIC reading was recorded for the compound Cc1cccc2c1OCN(c1ccccc1)C2 ?
Response given: 1.40

Challenge: Recorded log10 of MIC of CCCCN1COc2ccccc2C1 , please.
Response given: 1.70

Challenge: Which log10 of MIC reading was recorded for the compound Clc1ccc2c(c1)CN(c1ccccc1)CO2 ?
Response given: 1.10

Challenge: For the compound shown here, Clc1ccccc1N1COc2c(Cl)ccc(Cl)c2C1 , give the reported log10 of MIC.
Response given: 1.10

Challenge: Fill in the blank: the reported log10 of MIC of Cc1ccc2c(c1)CN(CCN1COc3ccc(C)cc3C1)CO2 is ____.
Response given: 1.40

Challenge: Value lookup for log10 of MIC; key = Cc1ccc(N2COc3ccc(Cl)cc3C2)cc1
Response given: 1.10

Challenge: Given the entry CC(=O)N1CCN(c2ccc(OCC3COC(Cn4ccnc4)(c4ccc(Cl)cc4Cl)O3)cc2)CC1 (centres undefined) , report its measured log10 of MIC.
Response given: 0.60

* * *

Tested on: Sporothrix schenckii
Experiment: Antimicrobial activity against Sporothrix schenckii after 24 hrs
Type: functional
observed property: log10(MIC) (log10 of the value in µg/mL)
Lab note - MIC converted to log10 from values in µg/mL.

Challenge: Entry under review: Brc1ccc(N2COc3ccc4ccccc4c3C2)cc1 . Reported log10(MIC)?
Response given: 1.70

Challenge: What measured log10(MIC) goes with Clc1ccc2c(c1)CN(CCN1COc3ccc(Cl)cc3C1)CO2 ?
Response given: 0.80

Challenge: Need log10(MIC), item OC(Cn1cncn1)(Cn1cncn1)c1ccc(F)cc1F [FLUCONAZOLE]
Response given: 0.30
